Tested on: SUDHL10 cells
Experiment: Induction of cytotoxicity (CellTiter-Glo, 5 h), SUDHL10
Details: read-out: Cytotox SUDHL10 [M] (median); IC50, median; SUDHL10, 5 h
// reported IC50 per item
metric: IC50 (M)

molecule	experimental-value
Cc1c2c(nn1C)COCC(F)(F)CCn1c(C(=O)O)c(CCCOc3cccc4ccccc34)c3ccc(Cl)c-2c31 (racemic) [Example 55]	7.4e-07
CCc1c2c(nn1C)CCCCCCn1c(C(=O)O)c(CCCOc3cccc4ccccc34)c3ccc(Cl)c-2c31 (single isomer, unassigned; enantiomer 1) [Example 52]	2e-06
CCc1c2c(nn1C)CN(CC(F)F)CCCCn1c(C(=O)O)c(CCCOc3cccc4cc(F)ccc34)c3ccc(Cl)c-2c31 (racemic)	3.6e-07
CCc1nn(CCN2CCOCC2)c2c1-c1c(Cl)ccc3c(CCCOc4cccc5ccccc45)c(C(=O)O)n(c13)CCCCOC2 (single isomer, unassigned; enantiomer 1)	3.4e-07
CCc1c2c(nn1C)CCCN(CC(F)F)CCn1c(C(=O)O)c(CCCOc3cccc4cc(F)ccc34)c3ccc(Cl)c-2c31 (racemic) [Example 118]	6.4e-07
Cc1c2c(nn1C)COCC(F)(F)CCn1c(C(=O)O)c(CCCOc3cccc4ccccc34)c3ccc(Cl)c-2c31 (single isomer, unassigned; enantiomer 1) [Example 56]	3.3e-07
CCc1c2c(nn1C)COCC1CC1Cn1c(C(=O)O)c(CCCOc3cccc4cc(F)ccc34)c3ccc(Cl)c-2c31 (single isomer, unassigned; (-)) [Example 105]	2.2e-07
CCc1c2c(nn1C)CCCN(CC(F)F)CCn1c(C(=O)O)c(CCCOc3cccc4cc(F)ccc34)c3ccc(Cl)c-2c31 [Example 119]	2.9e-07
CCc1c2c(nn1C)COCC(O)CCn1c(C(=O)O)c(CCCOc3cccc4cc(F)ccc34)c3ccc(Cl)c-2c31 (centres unmarked) [Example 101]	7.7e-06
CCc1c2c(nn1C)COCC1(CCn3c(C(=O)O)c(CCCOc4cccc5cc(F)ccc45)c4ccc(Cl)c-2c43)CC1 [Example 110]	2.8e-07
CCc1c2c(nn1C)CCCN(C)CCn1c(C(=O)O)c(CCCOc3cccc4cc(F)ccc34)c3ccc(Cl)c-2c31 (single isomer, unassigned) [Example 117]	2.3e-06

* * *

System: SUDHL10 cells
Assay: Induction of cytotoxicity (CellTiter-Glo, 5 h), SUDHL10
Settings: read-out: Cytotox SUDHL10 [M] (median); IC50, median; SUDHL10, 5 h; listed as 086

compound	result-unit	IC50
CCc1c2c(nn1C)COCC(F)(F)CCn1c(C(=O)O)c(CCCOc3cccc4cc(F)ccc34)c3ccc(Cl)c-2c31 (single isomer, unassigned) [Example 86]	M	9.7e-07

* * *

System: SUDHL10 cells
Experiment: Induction of cytotoxicity (CellTiter-Glo, 5 h), SUDHL10
Settings: read-out: Cytotox SUDHL10 [M] (median); IC50, median; SUDHL10, 5 h; listed as 076

compound	IC50
CCc1c2c(nn1C)CN(CC(F)F)CCCCn1c(C(=O)O)c(CCCOc3cccc4cc(F)ccc34)c3ccc(Cl)c-2c31 (single isomer, unassigned; enantiomer 2) [Example 76]	4e-07 M

* * *

Tested on: SUDHL5 cells
Experiment: Induction of cytotoxicity (CellTiter-Glo, 5 h), SUDHL5
Details: Homo sapiens, SU-DHL-5, 5 h, read-out: Cytotox SUDHL5 [M] (median), IC50, median; SUDHL5, 5 h
// reported IC50 per item

molecule	assayed-target	IC50 (M)
CCc1c2c(nn1C)CCCN(CCCCOC(C)=O)CCn1c(C(=O)O)c(CCCOc3cccc4cc(F)ccc34)c3ccc(Cl)c-2c31 (racemic)	SUDHL5 cells	1.3e-06
CCc1c2c(nn1C)CN(CCC(C)(C)O)CCCCn1c(C(=O)O)c(CCCOc3cccc4cc(F)ccc34)c3ccc(Cl)c-2c31 (single isomer, unassigned; enantiomer 2)	SUDHL5 cells	2.6e-06
CCc1nn(CCN2CCOCC2)c2c1-c1c(Cl)ccc3c(CCCOc4cccc5ccccc45)c(C(=O)O)n(c13)C/C=C\CN(C)C2 (single isomer, unassigned; enantiomer 1) [Example 43]	SUDHL5 cells	6e-07
CCc1c2c(nn1C)CN(CCOC)CCCCn1c(C(=O)O)c(CCCOc3cccc4cc(F)ccc34)c3ccc(Cl)c-2c31 (single isomer, unassigned; enantiomer 1)	SUDHL5 cells	8.2e-06
Cc1c2c(nn1C)COCC(F)(F)CCn1c(C(=O)O)c(CCCOc3cccc4cc(F)ccc34)c3ccc(Cl)c-2c31 (racemic) [Example 90]	SUDHL5 cells	9.9e-06
Cc1c2c(nn1C)COCCCCn1c(C(=O)O)c(CCCOc3cccc4ccccc34)c3ccc(Cl)c-2c31 (racemic)	SUDHL5 cells	5.3e-07
CCc1c2c(nn1C)CNCCCCn1c(C(=O)O)c(CCCOc3cccc4cc(F)ccc34)c3ccc(Cl)c-2c31 (racemic)	SUDHL5 cells	7.1e-06
Cc1c2c(nn1C)COCC(F)(F)CCn1c(C(=O)O)c(CCCOc3cccc4cc(F)ccc34)c3ccc(Cl)c-2c31 (single isomer, unassigned) [Example 92]	SUDHL5 cells	3.4e-07
Cc1c2c(nn1C)COCCCCn1c(C(=O)O)c(CCCOc3cccc4cc(F)ccc34)c3ccc(Cl)c-2c31 (single isomer, unassigned; enantiomer 1)	SUDHL5 cells	3.3e-06
Cc1c2c(nn1C)COCC1CC1Cn1c(C(=O)O)c(CCCOc3cccc4ccccc34)c3ccc(Cl)c-2c31 (single isomer, unassigned)	SUDHL5 cells	4.9e-07
CCc1c2c(nn1C)CN(CCC1CCOCC1)CCCCn1c(C(=O)O)c(CCCOc3cccc4cc(F)ccc34)c3ccc(Cl)c-2c31 (single isomer, unassigned; enantiomer 2)	SUDHL5 cells	8.2e-06
